Data provenance is the RNAGym collection of RNA variant scans (doi:10.7554/elife.80360).

Overview of recorded self-cleavage for various variants
B1: HDV Ribozyme (parent)
chain: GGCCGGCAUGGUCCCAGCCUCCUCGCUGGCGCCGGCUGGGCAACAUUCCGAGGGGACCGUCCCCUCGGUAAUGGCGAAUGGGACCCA

Variants of: B1
Assay: self-cleavage, relative activity (ratio to wild type); higher = more cleavage; co-transcriptional
Give a plain numeric answer without units written out.

[[record]]
mutation_code = "C21U C63G"
assay_metric = "self-cleavage"
reading = 0.119

[[record]]
mutation_code = "U12C A56C"
assay_metric = "self-cleavage"
reading = 0.453


Lookup: Report self-cleavage for C13G C66G please.
Found: 0.135

Lookup: Report self-cleavage for G50U C58U please.
Found: 0.909

Lookup: Report self-cleavage for G38C A83C please.
Found: 0.107
